Source listed as patent US20190367631A1.

assayed-system: T1, human MSR1 extracellular domain expressed with a N-terminal nonahistidine tag (His9-hMSR1); R&D Systems, Cat … (human, UniProt P21757 77-451)
T1 construct: extracellular domain; Bought reagent; also called His-hMSR1; 9xHis-hMSR1
T1 sequence: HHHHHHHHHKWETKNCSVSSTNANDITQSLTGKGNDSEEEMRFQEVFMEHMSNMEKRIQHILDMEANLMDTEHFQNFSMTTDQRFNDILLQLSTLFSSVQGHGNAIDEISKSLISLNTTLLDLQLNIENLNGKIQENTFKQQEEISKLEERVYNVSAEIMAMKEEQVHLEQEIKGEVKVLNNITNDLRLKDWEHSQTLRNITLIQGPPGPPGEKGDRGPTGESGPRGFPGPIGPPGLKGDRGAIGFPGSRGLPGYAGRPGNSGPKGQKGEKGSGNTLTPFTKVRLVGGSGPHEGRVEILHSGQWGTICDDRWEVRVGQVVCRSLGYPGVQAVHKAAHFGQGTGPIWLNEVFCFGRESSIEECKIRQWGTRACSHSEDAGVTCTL
experiment-notes: SPR Biacore T200, 25 C, antibody captured by anti-human Fc, His9-hMSR1 injected;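 further: running buffer HBS-ET pH 7.4, rates from sensorgrams fitted to a 1:1 model including mass transport limitation, KD and half-life derived from the kinetic constants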
observation-type: kon (M⁻¹ s⁻¹)
// units = M⁻¹ s⁻¹; emit number, no label

Using the record for H1H27732P-N297Q-LP1 (antibody, human IgG1, V domains shown, LXR agonist linker-payload LP1 clicked to azido-PEG3-amine on Q295 and Q297 (EU) of the heavy chain constant region, antibody-drug conjugate; human IgG1 Fc with N297Q (EU); also called H1H27732P-LP1) VH: QLQLQESGPGLVKPSETLSLTCTVSGGSISSSTYYWGWIRQPPGKGLEWIGSFYYSGSTYYNPSLKSRVTISVGTSKNQFSLKLSSVTAADTAVYFCARGGLLGRPFVIWGQGTMVTVSS VL: DIQMTQSPSSLSASVGDRVTITCRASQGIRNDLGWYQQKPGKAPKRLIYAASSLQSGVPSRFSGSGSGTEFTLTISSLQPEDFATYYCLQHNSYPLTFGGGTKVEIKR , report its kon. 150000

Using the record for H1H27729P-N297Q-LP1 (antibody, human IgG1, V domains shown, LXR agonist linker-payload LP1 clicked to azido-PEG3-amine on Q295 and Q297 (EU) of the heavy chain constant region, antibody-drug conjugate; human IgG1 Fc with N297Q (EU); also called H1H27729P-LP1) VH: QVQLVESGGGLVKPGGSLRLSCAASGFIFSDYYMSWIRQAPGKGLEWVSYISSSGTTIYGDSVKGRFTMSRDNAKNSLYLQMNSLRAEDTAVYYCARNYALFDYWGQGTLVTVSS VL: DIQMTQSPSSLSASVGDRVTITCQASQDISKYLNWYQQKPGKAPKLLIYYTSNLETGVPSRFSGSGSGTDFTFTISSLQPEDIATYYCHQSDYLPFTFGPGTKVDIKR , report its kon. 54700

Using the record for H1H27749P-N297Q-LP1 (antibody, human IgG1, V domains shown, LXR agonist linker-payload LP1 clicked to azido-PEG3-amine on Q295 and Q297 (EU) of the heavy chain constant region, antibody-drug conjugate; human IgG1 Fc with N297Q (EU); also called H1H27749P-LP1) VH: QVQLQESGPGLVKPSETLSLTCTVSDGSISSYYWSWIRQPPGRGLEWIGFIYYSGSTSYNPSLKSRVTISVDTSMSQFSLKLRSVTAADTAVYYCARGSPFDYWGPGTLVTVSS VL: EIVLTQSPGTLSLSPGERATLSCRASQSVSSSYLAWYQQRPGQAPSLLISGASRRATGIPDRFSGSGSGTDFTLTIRRLEPEDFAMYYCQQYGSSPPTFGGGTKVEIKR , report its kon. 140000

Using the record for H1H27747P-N297Q-LP1 (antibody, human IgG1, V domains shown, LXR agonist linker-payload LP1 clicked to azido-PEG3-amine on Q295 and Q297 (EU) of the heavy chain constant region, antibody-drug conjugate; human IgG1 Fc with N297Q (EU); also called H1H27747P-LP1) VH: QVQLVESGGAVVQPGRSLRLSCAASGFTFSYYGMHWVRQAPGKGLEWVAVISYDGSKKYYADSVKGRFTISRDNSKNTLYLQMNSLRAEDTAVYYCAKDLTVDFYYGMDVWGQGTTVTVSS VL: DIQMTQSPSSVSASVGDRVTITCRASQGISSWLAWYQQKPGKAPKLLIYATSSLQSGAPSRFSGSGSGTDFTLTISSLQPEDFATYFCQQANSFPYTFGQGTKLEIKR , report its kon. 136000
